ASSAY NOTES: chemical genetic growth profiling, strain panel (AID 1159580);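 note: tested at 20 µM; growth read once vehicle control cultures reached saturation at 30 °C; 1 = growth at the plate median or of vehicle wells; lower values mean less growth of the strain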
TEST CONTEXT: S. cerevisiae deletion strains, growth OD, locus YKR001C, strain vps1, stronger effect = lower value
Hit rate of the full screen: of about 5,500 compounds, about 2,000 (36%) were called active. About 18% were inconclusive and are not listed. The list shows a part of the results.
Measured normalized growth, listed per entry.

MOLECULE	normalized growth
CCN1CCCC(OC(=O)C(c2ccccc2)c2ccccc2)C1 (stereo not drawn)	1.02 (inactive)
COc1ccc(C(CN(C)C)C2(O)CCCCC2)cc1 (stereo not drawn)	0.977 (inactive)
COc1ccc2c(c1)OC/C(=C/c1ccc(OC)c(OC)c1)C2=O	0.861 (active)

Data origin, for the record: PubChem BioAssay AID1159580
